assay_comment: solubility L in ZLI 1840 at room temperature
Type: physicochemical
assay_setup: ZLI 1840 (Merck), stirred 1 week
Entries annotated with measured Solubility L

Known Solubility L results, listed for orientation:
{"compound": "Cc1ccc2nn(-c3ccc(N=Nc4ccc(N=Nc5ccc(N(C)Cc6ccccc6)cc5)cc4C)cc3C)nc2c1 [Example 25]", "Solubility L": "1,9%"}
{"compound": "CCCCc1ccc2nn(-c3ccc(N=Nc4cc(C)c(N=Nc5ccc(N(C)C)cc5)cc4C)cc3C)nc2c1 [Example 14]", "Solubility L": "> 2,3%"}

The record that follows has no Solubility L shown yet.
According to the records, this compound CCCCNc1ccc(N=Nc2ccc(N=Nc3ccc(-n4nc5ccc(C)cc5n4)c(C)c3)c(C)c2)cc1 [Example 22] displays Solubility L of > 5%
